System: MS2 coat protein
Assay: apparent KD of MS2 coat protein, switch ON state; designed switch direction (-1 OFF switch, 1 ON switch): -1; higher = weaker reporter binding
Conditions: FMN input: 0 or 200 uM; Eterna round: R93 (includes R88 designs)
For each of the sequences below, state its apparent KD of MS2 coat protein.
Give bare numbers, in µM.

Worked examples, 5 sequences total:
INSERT INTO measurements (seq_text, result) VALUES
  ('AGGGAGUAAGGAUAUGCAUAUAAUGAAGAGAAAGAAAAGAAGCAGAAGGUACAUGAGGAUCACCCAUGUAAAAA [milkweed 2]', 0.0284),
  ('AUGUAGGGAGGAUAUACAUAGAUACAGAUUCAUGUGGAACUACAUGAGGAUCACCCAUGUAGAAGGCCCUAAAA [Mat - Same state - Mayanna Mod - D125]', 0.0274),
  ('AAAAAACAUGAGGAUCACCCAUGUGAGGAUAUGCGAAAAAAAAAAUAAAAAAAAAAAAGUAGAAGGUACAAAAA [LROPPY Exclusion 1 - v08_deltaG=5.44]', 0.0279),
  ('AAAAAGGCAGGAUAUGCAUACCCACGGAAAAAAAGGCUGGGACAUGAGGAUCACCCAUGUAGAAGGGCCAAAAA [Dora Explored 12 - Jieux - Exclusion 2]', 0.0215),
  ('ACGUACUCAGGAUAUACGAACAUGUCAAAAGACGUGAAGGGACAUGAGGAUCACCCAUGUAGAAGGGAGUACGA [Mat - Exclusion 2 - JL mod - D6]', 0.0336);

Turning now to a further record.
Exercise: Looking for the measured apparent KD of MS2 coat protein of UCGUGGUCAGGAUAUACAUGAGGAUCACCCAUGUAAAAGAACACAAAGGAGAGACGACGUAGAAGGGACAAAUA [Erqugere] , can you help?
Solution: 0.0437

====

System: K4 kissing-loop RNA reporter;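 further: bound reporter read as fluorescence of individual clusters on recovered sequencing chips by microscopy, with normalized cluster intensities fitted with a binding model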
Assay: apparent KD of K4 kissing-loop reporter; higher = weaker reporter binding
Settings: Eterna round: R107; input ligand: arginine 13.2 mM
For each of the sequences below, state its apparent KD of K4 kissing-loop reporter.
Numbers only, in µM.

Worked examples, 3 sequences total:
INSERT INTO results (seq_text, result) VALUES
  ('UACAGGGCGAGUGAUGUUUGCUCAUGUGAUACCAGUGCCAUCCAACACCCUUGGCAGCAUGCGGGCAGUGAUGUUGUCCUUGGUU [Exclusion Theophylline A GF11]', 0.223),
  ('AUAUUUAUUUAGUCACUUUUCAUAUUAUGUCAGGAUAUCGUAUUUUCGAGAAGGGACUCAUGGUAGUGAUGUUACCUAUUUCUCA [#03 K4 FMN A Exclusion]', 0.382),
  ('GUCCACACUGCAGGAUAUGGAGGUAUAGCGAGGGAGUGUGGAAGCACACCUCUGGCAGUGAUGUUGCCAGAAGGGCGGUGCGGCG [Masodionra]', 0.103);

Could you tell me apparent KD of K4 kissing-loop reporter for each of these sequences? They are listed below.
1. CACGAUGAAUUCUCUAGGAGUGAUGUUUUUCGAGGACCGGUACGGCCGCCACUCGGACCAGGAGCGUGGUAGCGGCGAAAAGACU [zpmullin]
2. AGAAGAGUGAUGUUCUUCUAUAUCUCAGAAGGAGCGACAUUAAUGUCAGGUAGGUCGCUGAGAUGAAAUCUCACACAGAUCUUGG [Arg A SS t8a]
3. UUUAUAAAGUCGGCCGCCACUGGAUUUAUAUUUGUUUAAUCUGGAUCAAAGUGAUGUUUUGAGUCCAGGACCGGGACAUUUGUUA [JR_ExcTryptoB_Sub002]

Solution:
1. 0.256
2. 0.154
3. 0.123
